All values here come from patent US20160310389A1.

// reported Correlation length peak [A] for each item listed
assay.protocol: SAXS correlation length of the micelles
Type: physicochemical
measurement.parameters: 4% oil
Counter-ions that a name gives are not always drawn.
Entry rule: numbers only, all in A.

See these solved cases before continuing.
# compound, reading.unit, Correlation length peak [A]
records = [
    ("CCO", "A", 49),
    ("CCOC(=O)CC(O)(CC(=O)OCC)C(=O)OCC [Triethyl Citrate]", "A", 49),
    ("CC(=O)CCc1ccc(O)cc1", "A", 49),
    ("CC(C)=CCC/C(C)=C/COC(=O)Cc1ccccc1 [Geranyl Phenyl Acetate]", "A", 60),
    ("COc1ccc(C=O)cc1", "A", 51),
]

input: Give its Correlation length peak [A] value. Item: CCCCCCCCCCCCCCCC
output: 66

input: Cool, now C=C(C)[C@H]1CC=C(C)CC1
output: 62

----------
assay.protocol: Kinematic viscosity of surfactant base formulation with added agent (calibrated Cannon viscometers)
Assay type: physicochemical
measurement.parameters: kinematic viscosity at 40° C.; lowest over 2%, 4%, 6%, 8% agent in base formulation (24% sodium undecyl sulfate, 6% lauramidopropyl betaine, 1.6% perfume)
Protocol: Referring to Tables 1 and 2, the base formulations were made by mixing 1.6% perfume, 24% sodium undecyl sulfate (CAS#1072-24-8) active, 6% lauramidopropyl betaine (CAS#4292-10-8) active and 60.4% deionized water which leaves 8% unfilled for the addition of a viscosity reducing agent (the balance being filled in by distilled water). […] Viscosity values were calculated based on the equation: […]
Where a name gives a salt, the structure may show the parent alone.
// reported Lowest viscosity achieved for each item listed
Entry rule: numbers only, all in cSt.

See these solved cases before continuing.
# molecule, reading.unit, data.value
data = [
    ("CCO", "cSt", 29),
    ("CCCCCC1(C)CCC(C)(C)C1=O (stereo not drawn)", "cSt", 47),
    ("CCOC(=O)CC(O)(CC(=O)OCC)C(=O)OCC [Triethyl Citrate]", "cSt", 41),
    ("C=C(C)[C@H]1CC=C(C)CC1 [Limonene]", "cSt", 86),
    ("CCCCCCCCCCCCCC(=O)OC(C)C [Iso Propyl Myristate]", "cSt", 30),
]

input: Give its Lowest viscosity achieved value. Item: C=CC(C)(CCC=C(C)C)OC(=O)C(C)C (stereo not drawn) [Linalyl Iso Butyrate]
output: 38

input: Cool, now CC(=O)OCCC(C)CCC=C(C)C (stereo not drawn) [Citronellyl Acetate]
output: 363

input: Cool, now CCCCCCC1C(=O)CCC1C(=O)OC (stereo not drawn) [Dihyro Iso Jasmonate]
output: 119

input: Cool, now CC(C)CCOC(=O)c1ccccc1O [Isoamyl Salicylate]
output: 193

input: Cool, now CC(=O)CCc1ccc(O)cc1
output: 33

input: Cool, now COC(C)(C)C1CC=C(C)CC1 (stereo not drawn)
output: 419

input: Cool, now CC(=O)OCCC(C)CCCC(C)C (stereo not drawn) [3,7-Dimethyloctyl Acetate]
output: 446

input: Cool, now CC12CCC(CC1)C(C)(C)O2
output: 203

----------
assay.protocol: Kinematic viscosity of surfactant base formulation with added agent (calibrated Cannon viscometers)
Assay type: physicochemical
measurement.parameters: kinematic viscosity at 40° C.; lowest over 2%, 4%, 6%, 8% agent in base formulation (24% sodium undecyl sulfate, 6% lauramidopropyl betaine, 1.6% perfume)
Experimental: Referring to Tables 1 and 2, the base formulations were made by mixing 1.6% perfume, 24% sodium undecyl sulfate (CAS#1072-24-8) active, 6% lauramidopropyl betaine (CAS#4292-10-8) active and 60.4% deionized water which leaves 8% unfilled for the addition of a viscosity reducing agent (the balance being filled in by distilled water). […] Viscosity values were calculated based on the equation: […]
quantity.measured: log10(Lowest viscosity achieved) (log10 of the value in cSt)
Each number you see is log10 of Lowest viscosity achieved, and the unit inside the log is cSt.

See these solved cases before continuing.
# molecule, log10(Lowest viscosity achieved)
measured = [
    ("CCCCCC(=O)OCC(C)C [Isobutyl Hexanoate]", 2.04),
    ("CC(CC=O)CCCC(C)(C)O (centres unmarked) [Hydroxycitronellal]", 1.53),
]

input: Give its log10(Lowest viscosity achieved) value. Item: CC1=CCC(C(C)C)=CC1
output: 1.51

input: Cool, now CC(C)CC=C(C=O)C(C)C
output: 2.52

input: Cool, now CC1=CC=C(C(C)C)CC1
output: 1.62
